target entity: FPR1 (Homo sapiens)
Construct: expressed in transfected cells; host or cells: HL60 (human promyelocytic leukemia), stably transfected; gift from Dr. Marie-Josephe Rabiet
Sequence (P21462 1-350): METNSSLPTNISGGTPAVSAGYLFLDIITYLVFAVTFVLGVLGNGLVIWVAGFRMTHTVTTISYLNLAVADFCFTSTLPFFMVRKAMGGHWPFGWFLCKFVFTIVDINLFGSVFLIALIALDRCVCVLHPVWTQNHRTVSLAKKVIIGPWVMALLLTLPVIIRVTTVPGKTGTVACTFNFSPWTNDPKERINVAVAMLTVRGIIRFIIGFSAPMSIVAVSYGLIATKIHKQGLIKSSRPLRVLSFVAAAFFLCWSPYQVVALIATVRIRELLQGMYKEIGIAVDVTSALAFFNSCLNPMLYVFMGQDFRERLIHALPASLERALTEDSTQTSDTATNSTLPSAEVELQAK
assay summary: Ca2+ mobilization in FPR1-transfected HL60 cells
Assay type: cell-based
measured endpoint: pEC50
As a rule, pEC50 stands for the negative log10 of the concentration, concentration in M.

Consider the compound COc1cccc(COC(=O)c2cc(C#N)c(=O)n(CC(=O)Nc3ccc(Br)cc3)c2C)c1 [Compound 4d] and give its measured pEC50.
4.68

Consider the compound CCCCNC(=O)c1cc(C#N)c(=O)n(CC(=O)Nc2ccc(Br)cc2)c1C [Compound 8d] and give its measured pEC50.
5.04

Consider the compound COc1cccc(CCOC(=O)c2cc(C#N)c(=O)n(CC(=O)Nc3ccc(Br)cc3)c2C)c1 [Compound 4e] and give its measured pEC50.
4.62
